# assayed-target: human cathepsin S (CatS) (Homo sapiens)
# Construct: purchased Sigma Aldrich
# Sequence (P25774 115-331): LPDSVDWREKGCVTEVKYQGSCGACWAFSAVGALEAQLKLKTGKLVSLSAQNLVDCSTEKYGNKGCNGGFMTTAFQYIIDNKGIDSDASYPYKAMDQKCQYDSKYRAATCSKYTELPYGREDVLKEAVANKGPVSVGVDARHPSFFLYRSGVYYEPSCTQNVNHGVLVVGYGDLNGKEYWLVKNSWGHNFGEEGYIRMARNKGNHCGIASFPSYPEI
# measurement-notes: Fluorometric inhibition assay, cathepsin S
# Format: biochemical
# measurement-parameters: Ki, CatS
In this section, each of the compounds is paired with its reported Ki.
Just the number in nM, nothing appended.

{"compound": "CC(C)C[C@@H](/C=C/S(=O)(=O)c1ccccc1)NC(=O)[C@H](Cc1ccccc1)NC(=O)c1cnccn1 [compound 58]", "Ki (nM)": 126}

Query: Output measured Ki for this item: CCOC(=O)C=CC(=O)C(COCc1ccccc1)NC(=O)C(CC1CCCCC1)NC(=O)N1CCOCC1 (stereo not shown) [compound 40]
Response: 22

Query: Look up and state reported Ki for O=C(N[C@@H](Cc1ccccc1)C(=O)N[C@H](/C=C/[N+](=O)[O-])CCc1ccccc1)OCc1ccccc1 [compound 13]
Response: 201

Query: Give Ki for the following compound: CCOC(=O)/C=C/C(=O)[C@H](CCc1ccccc1)NC(=O)[C@H](Cc1ccccc1)NC(=O)OCc1ccccc1 [compound 22]
Response: 18
